Hey, just so you know, these numbers are from patent US20210388087A1.

Exercise: for every item that follows, state its recorded fold change of affinity.
Target: T1, Human CD3eg linker (human)
T1 construct: Single chain: epsilon and gamma subunits of human CD3 joined by a 29-mer linker, Flag-tag at the C-terminus; also called recombinant human CD3
T1 chain: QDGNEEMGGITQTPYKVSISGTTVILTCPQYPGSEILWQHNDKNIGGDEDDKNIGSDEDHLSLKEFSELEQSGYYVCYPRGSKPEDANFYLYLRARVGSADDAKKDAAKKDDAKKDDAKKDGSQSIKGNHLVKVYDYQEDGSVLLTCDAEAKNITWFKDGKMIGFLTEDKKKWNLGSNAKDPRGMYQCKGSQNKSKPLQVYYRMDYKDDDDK
Experiment: Biacore SPR, vs template H183/L072
State the answer as a number, implicitly in fold.

Entry H183/L072 VH K52bF (antibody, name in Kabat numbering, V domains shown) VH: QVQLVESGGGLVQPGRSLRLSCAASGFTFSNAWMHWVRQAPGKGLEWVAQIKDFGNAYAAYYAPSVKGRFTISRDDSKNSIYLQMNSLKTEDTAVYYCHYVHYASASTVLPAFGVDAWGQGTTVTVSS VL: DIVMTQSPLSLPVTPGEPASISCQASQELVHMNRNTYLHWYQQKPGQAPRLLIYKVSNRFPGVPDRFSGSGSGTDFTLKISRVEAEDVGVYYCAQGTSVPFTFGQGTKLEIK has what fold change of affinity?
0.4

Endpoint output: fold change of affinity of H183/L072 VH A54N (antibody, name in Kabat numbering, V domains shown) VH: QVQLVESGGGLVQPGRSLRLSCAASGFTFSNAWMHWVRQAPGKGLEWVAQIKDKGNNYAAYYAPSVKGRFTISRDDSKNSIYLQMNSLKTEDTAVYYCHYVHYASASTVLPAFGVDAWGQGTTVTVSS VL: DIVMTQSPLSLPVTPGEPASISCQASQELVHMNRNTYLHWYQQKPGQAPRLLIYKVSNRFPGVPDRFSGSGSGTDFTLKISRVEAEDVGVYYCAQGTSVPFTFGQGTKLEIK . Value?
1.1

Returns the measured fold change of affinity for the input binder. Input: H183/L072 VH Q50T (antibody, name in Kabat numbering, V domains shown) VH: QVQLVESGGGLVQPGRSLRLSCAASGFTFSNAWMHWVRQAPGKGLEWVATIKDKGNAYAAYYAPSVKGRFTISRDDSKNSIYLQMNSLKTEDTAVYYCHYVHYASASTVLPAFGVDAWGQGTTVTVSS VL: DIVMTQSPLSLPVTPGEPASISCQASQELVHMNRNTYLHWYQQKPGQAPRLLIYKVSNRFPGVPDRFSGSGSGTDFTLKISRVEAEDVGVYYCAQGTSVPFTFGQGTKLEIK
0

Which fold change of affinity value belongs to H183/L072 VH G52cV (antibody, name in Kabat numbering, V domains shown) VH: QVQLVESGGGLVQPGRSLRLSCAASGFTFSNAWMHWVRQAPGKGLEWVAQIKDKVNAYAAYYAPSVKGRFTISRDDSKNSIYLQMNSLKTEDTAVYYCHYVHYASASTVLPAFGVDAWGQGTTVTVSS VL: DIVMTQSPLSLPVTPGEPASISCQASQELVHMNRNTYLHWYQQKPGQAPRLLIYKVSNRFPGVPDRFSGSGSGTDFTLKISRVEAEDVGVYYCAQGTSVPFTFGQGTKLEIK ?
1.5

Please give the measured fold change of affinity for this binder: H183/L072 VH V100iI (antibody, name in Kabat numbering, V domains shown) VH: QVQLVESGGGLVQPGRSLRLSCAASGFTFSNAWMHWVRQAPGKGLEWVAQIKDKGNAYAAYYAPSVKGRFTISRDDSKNSIYLQMNSLKTEDTAVYYCHYVHYASASTVLPAFGIDAWGQGTTVTVSS VL: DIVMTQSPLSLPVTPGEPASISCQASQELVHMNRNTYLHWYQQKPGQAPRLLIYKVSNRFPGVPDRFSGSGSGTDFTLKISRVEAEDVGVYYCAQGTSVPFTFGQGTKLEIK
0.8
